- Test system: HEK-293T
- measurement.notes: Multiplex assay against HEK293T
- Format: toxicity, cell-based
- assay.setup: human, 24 h, 10 µM, compound concentration 10 uM, replicate 1
Non-standard residues stand in square brackets, D forms with d. Residues, ends and D or L forms follow the SMILES beside them.
endpoint.name: Population Mitochondria Different-Phenotype (%)
Record the value in %, omitting the unit from your answer.

A selection of reference data follows.
{"compound": "CC(C)C[C@@H]1NC(=O)[C@@H](C(C)C)NC(=O)[C@@H]2CCCN2C(=O)[C@@H](CC(=O)O)NC(=O)[C@@H](Cc2c[nH]c3ccccc23)NC1=O [BQ-123] (cyclo(L[dW][dD]P[dV]))", "numeric.value": 31}
{"compound": "COC(c1ccccc1)(c1ccccc1)[C@H](Oc1nc(C)cc(C)n1)C(=O)O", "numeric.value": 34}

(Q) Query for HEK-293T: what Population Mitochondria Different-Phenotype (%) does the record show for CCn1c(-c2nc3cc(C(=O)N4CCCC(N)C4)ccc3n2C)cc2ccccc21.Cl (stereo not drawn) ?
(A) 72

----------
- Test system: Fibroblast
- measurement.notes: Multiplex assay against human fibroblast
- Assay type: toxicity, cell-based
- assay.setup: 24 h, 10 µM, compound concentration 10 uM, replicate 2
Reported Population Fragmented Nuclei (%) values are given for each entry in this list.

A selection of reference data follows.
{"compound": "C[C@@H]1CC(=O)Nc2cccc(-c3ccc4c(c3)c(-c3cnn(C)c3)nn4C)c2N1", "result": "13%"}
{"compound": "Cc1sc2c(c1C)C(c1ccc(Cl)cc1)=N[C@H](CC(=O)OC(C)(C)C)c1nnc(C)n1-2", "result": "26%"}
{"compound": "CCC(=O)OCC(=O)[C@@]1(OC(=O)CC)[C@@H](C)C[C@H]2[C@@H]3CCC4=CC(=O)C=C[C@]4(C)[C@@]3(Cl)[C@@H](O)C[C@@]21C [BECLOMETHASONE DIPROPIONATE]", "result": "38%"}
{"compound": "C=CCN1C[C@H](C(=O)N(CCCN(C)C)C(=O)NCC)C[C@@H]2c3cccc4[nH]cc(c34)C[C@H]21", "result": "43%"}
{"compound": "COc1cc2nc(N3CCN(C(=O)COc4c(OC)cccc4C(C)C)CC3)nc(N)c2cc1OC.Cl.Cl", "result": "25%"}
{"compound": "CN1CCN2c3ccccc3Cc3ccccc3C2C1.Cl (stereo not given) [MIANSERIN HYDROCHLORIDE]", "result": "31%"}
{"compound": "COc1cc(C(=O)N2CC[C@@H](O)[C@@H](N)C2)cc2nc(-c3cc4ccccc4n3CC3CC3)n(C)c12.Cl", "result": "27%"}
{"compound": "CCc1nn2c(C)cc(C)nc2c1Cc1ccc(-c2nnc(C3CCNCC3)o2)cc1", "result": "40%"}
{"compound": "COc1c(Nc2ccc(S(C)(=O)=O)nc2C)ncnc1OC1CCN(C(=O)OC(C)C)CC1", "result": "49%"}

Now consider the entry below.
(Q) I'd like to know its Population Fragmented Nuclei (%). The compound in question is Cc1cc(=O)n(C)c2cc(N3C(=O)CC[C@H](NS(=O)(=O)CC(C)C)[C@H]3c3ccc(Cl)cc3)ccc12
(A) 28%

----------
- System: Fibroblast
- measurement.notes: Multiplex assay against human fibroblast
- Assay type: toxicity, cell-based
- assay.setup: 24 h, 1 µM, compound concentration 1 uM, replicate 2
endpoint.name: Population Healthy Nuclei (%)
Record the value in %, omitting the unit from your answer.

{"compound": "COc1cc2nc(N3CCN(C(=O)c4ccco4)CC3)nc(N)c2cc1OC.Cl [PRAZOSIN HYDROCHLORIDE]", "Population Healthy Nuclei (%)": 57}
{"compound": "CCCCCCNC(=O)Nc1ccc(S(=O)(=O)Nc2ccc(CCNC[C@H](O)COc3ccc(O)cc3)cc2)cc1", "Population Healthy Nuclei (%)": 59}
{"compound": "COc1ccc2c(c1OCc1ccccc1)C[C@@H](C(=O)O)N(C(=O)C(c1ccccc1)c1ccccc1)C2", "Population Healthy Nuclei (%)": 53}

(Q) I'd like to know its Population Healthy Nuclei (%). The compound in question is Cn1cc(C(=O)OCC2CCN(CCNS(C)(=O)=O)CC2)c2ccccc21
(A) 47

(Q) Also O=C(NCCNCC(O)COc1ccc(O)cc1)N1CCOCC1.O=C(NCCNCC(O)COc1ccc(O)cc1)N1CCOCC1.O=C(O)/C=C/C(=O)O (centres undefined) [XAMOTEROL FUMARATE] ?
(A) 52

(Q) Also Cl.Cl.OCCOCCN1CCN(C(c2ccccc2)c2ccc(Cl)cc2)CC1 (centres undefined) [HYDROXYZINE HYDROCHLORIDE] ?
(A) 54

(Q) Also O=c1nc2[nH]c3ccccc3nc-2c(=O)[nH]1 ?
(A) 41

(Q) Also CC(C)C[C@H](CO)Nc1nc(S[C@@H](C)c2ccccc2)nc2nc(N)sc12 ?
(A) 54

(Q) Also CC(C)(O)C(=O)N1CCN(c2ccc(C(F)(F)F)c(C3=C(c4c[nH]c5ccccc45)C(=O)NC3=O)c2)CC1 ?
(A) 45

(Q) Also COc1c(Nc2ccc(S(C)(=O)=O)nc2C)ncnc1OC1CCN(C(=O)OC(C)C)CC1 ?
(A) 50

(Q) Also O=C(O)CCC/C=C\CC1C(O)CC(O)C1/C=C/C(O)COc1cccc(Cl)c1 (centres undefined) ?
(A) 49

(Q) Also Cc1cc(O)c(-c2ccc([C@@H](C)CN(C)C)cc2)c2c1[nH]c(=O)c1sccc12 ?
(A) 54

(Q) Also CN1CCN2c3ccccc3Cc3ccccc3C2C1.Cl (centres undefined) [MIANSERIN HYDROCHLORIDE] ?
(A) 50

(Q) Also COC(c1ccccc1)(c1ccccc1)[C@H](Oc1nc(C)cc(C)n1)C(=O)O ?
(A) 62

(Q) Also Cc1cc(-c2ccc3c(c2)CC[C@H]3N2CC3(CCN(C(=O)Cc4cn5cc(C)sc5n4)CC3)C2)ncn1 ?
(A) 43

(Q) Also S=C(NCCCc1c[nH]cn1)NCCCN(Cc1ccc(Cl)c(Cl)c1)c1ccc(Br)cn1 ?
(A) 57

(Q) Also CN1CCC(C(=O)c2cccc(NC(=O)c3c(F)cc(F)cc3F)n2)CC1 ?
(A) 43

(Q) Also Cc1sc2c(c1C)C(c1ccc(Cl)cc1)=N[C@H](CC(=O)OC(C)(C)C)c1nnc(C)n1-2 ?
(A) 50

(Q) Also Cc1cc(=O)n(C)c2cc(N3C(=O)CC[C@H](NS(=O)(=O)CC(C)C)[C@H]3c3ccc(Cl)cc3)ccc12 ?
(A) 44

(Q) Also CN1CCN(c2ccc(Nc3c4ccccc4nc4ccccc34)cc2)CC1.Cl.Cl.O ?
(A) 57

(Q) Also COc1cc(Nc2ncc3c(n2)-c2ccc(Cl)cc2C(c2c(F)cccc2OC)=NC3)ccc1C(=O)O ?
(A) 47

Hello, the source for this data is ChEMBL document CHEMBL5058577, in case you need it.
